# Test system: PC9
# Test protocol: MTT proliferation assay, single agent
# Type: cell-based
# Settings: Homo sapiens, PC-9, Lung ADC, EGFR ex19, 72 h, mean of several independent experiments
Reported property: pIC50
// pIC50 here means minus log10 of the molar concentration (mol/L)

// fetch pIC50; item: Cn1c(=O)c(-c2c(Cl)cccc2Cl)cc2c(N)nc(Nc3ccccc3)nc21 [Compound (1)] ; system: PC9 5.55

---

# Tested on: H3122 Cells
# Test protocol: MTT cell viability assay, combinations (Chou-Talalay method)
# Type: cell-based
# Settings: Homo sapiens, NCI-H3122, H3122 cells; compound (1) in combination with Alectinib; read-out: Combination Compound (1) IC50
Reported property: pIC50
Answer as the number alone; pIC50 is minus log10 of concentration in mol/L.

# return recorded pIC50 for input Cn1c(=O)c(-c2c(Cl)cccc2Cl)cc2c(N)nc(Nc3ccccc3)nc21 [Compound (1)] 6.62

---

# Tested on: H3122 Cells
# Test protocol: MTT cell viability assay, combinations (Chou-Talalay method)
# Type: cell-based
# Settings: Homo sapiens, NCI-H3122, H3122 cells; compound (1) in combination with Crizotinib; read-out: Combination Compound (1) IC50
Reported property: IC50 (nM)
# unit: nM | format: bare number

Using known records, supply IC50 for `Cn1c(=O)c(-c2c(Cl)cccc2Cl)cc2c(N)nc(Nc3ccccc3)nc21` 500

---

# System: HCC78 cells
# Test protocol: MTT cell viability assay, combinations (Chou-Talalay method)
# Type: cell-based
# Settings: Homo sapiens, HCC78, HCC78 cells; TKI in combination with compound (1); read-out: Combination TKI IC50
# Procedure: The combinations comprising the compound of formula (1) were tested using an MTT proliferation assay in a panel of tumor cell lines of different origins. All culture materials were obtained from the sources described in Example 2. […] Cell viability in response to combination treatment was assessed by the Thiazolyl Blue Tetrazolium Bromide (MTT) (Sigma, St Louis, MO) assay. […]
Reported property: pIC50
The quantity pIC50 is defined as the negative base-10 logarithm of the molar concentration.

Consider the compound `COc1cc2c(Oc3ccc(NC(=O)C4(C(=O)Nc5ccc(F)cc5)CC4)cc3F)ccnc2cc1OCCCN1CCOCC1` and give its recorded pIC50. 6.89

---

# Tested on: H2228 Cells
# Test protocol: MTT cell viability assay, combinations (Chou-Talalay method)
# Assay type: cell-based
# Settings: Homo sapiens, NCI-H2228; H2228 cells; tyrosine kinase inhibitor as single agent; 72 h; read-out: TKI IC50
Reported property: pIC50
FYI, pIC50 means -log10 of a concentration in mol per litre.

Please report pIC50 for the following compound: C[C@@H](Oc1cc(-c2cnn(C3CCNCC3)c2)cnc1N)c1c(Cl)ccc(F)c1Cl [Crizotinib] 6.60

---

# System: SW48
# Test protocol: MTT proliferation assay, single agent
# Assay type: cell-based
# Settings: Homo sapiens, Colon ADC, EGFR ex18, 72 h, mean of several independent experiments
Reported property: pIC50
Interpret pIC50 as the negative base-10 log of the concentration measured in mol/L.

Output measured pIC50 for this item: `Cn1c(=O)c(-c2c(Cl)cccc2Cl)cc2c(N)nc(Nc3ccccc3)nc21` 6.12

---

# System: HCC78 cells
# Test protocol: MTT cell viability assay, combinations (Chou-Talalay method)
# Type: cell-based
# Settings: Homo sapiens, HCC78, 72 h, HCC78 cells; compound (1) as single agent; 72 h; read-out: Compound (1) IC50
Reported property: pIC50
FYI, pIC50 means -log10 of a concentration in mol per litre.

Find the measured pIC50 of `Cn1c(=O)c(-c2c(Cl)cccc2Cl)cc2c(N)nc(Nc3ccccc3)nc21` with HCC78 cells as test system. 6.10
